These entries and their values trace back to patent US20110189183A1.

Target: Candida albicans (Cat. No. 10231, ATCC) whole cells (Candida albicans)
Assay: luminescent C. albicans ELISA, Fab; assay background 950
experimental-readout: ELISA (RFU)
API: value field is a number in RFU; no unit string.

Some binders with known ELISA (RFU) results, for comparison:
INPUT: For the binder ID-3-RD5-P2E9 Fab (Fab, V domains shown) VH: EVQLVESGGGLVKAGGSLILSCGVSNFRISAHTMNWVRRVPGGGLEWVASISTSSTYRDYADAVKGRFTVSRDDLEDFVYLQMHKMRVEDTAIYYCARKGSDRLSDNDPFDAWGPGTVVTVSP VL: GVVMTQSPSTLSASVGDTITITCRASQSIETWLAWYQQKPGKAPKLLIYKASTLKTGVPSRFSGSGSGTEFTLTISGLQFDDFATYHCQHYTPHFGATFGQGTRVEIKR , what ELISA (RFU) is on record?
OUTPUT: 8000

INPUT: Input ID-3-RD6-P1H10 Fab (Fab, V domains shown) VH: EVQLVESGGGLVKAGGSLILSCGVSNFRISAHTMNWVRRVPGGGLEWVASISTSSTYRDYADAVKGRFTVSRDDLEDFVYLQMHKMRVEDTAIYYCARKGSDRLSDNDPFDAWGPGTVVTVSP VL: GVVMTQSPSTLSASVGDTITITCRASQSIETWLAWYQQKPGKAPKLLIYKASTLKTGVPSRFSGSGSGTEFTLTISGLQFDDFATYHCQHYTAHNGATFGQGTRVEIKR
OUTPUT: 50000

Now take the following binder into account.
INPUT: Reported ELISA (RFU) for ID-2-RD4-P1A5 Fab (Fab, V domains shown) VH: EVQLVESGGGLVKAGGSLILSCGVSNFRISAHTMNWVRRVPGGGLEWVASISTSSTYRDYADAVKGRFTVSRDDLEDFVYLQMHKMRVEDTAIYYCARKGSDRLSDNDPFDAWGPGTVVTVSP VL: GVVMTQSPSTLSASVGDTITITCRASQSIETWLAWYQQKPGKAPKLLIYKASTLKTGVPSRFSGSGSGTEFTLTISGLQFDDFATYHCQHYLSYNATFGQGTRVEIKR : what is it?
OUTPUT: 8140
